- Tested on: KMS11 (human myeloma cell line)
- protocolText: Cell proliferation assay (CellTiter-Glo) in KMS11 cells
- Type: cell-based
- recordedConditions: KMS-11, 72 h, Table 5, 3 days, read-out: KMS11-luc EC50
Below: a set of entries, each annotated with reported pEC50.
Interpret pEC50 as the negative base-10 log of the concentration measured in mol/L.

| molSmiles | pEC50 |
| --- | --- |
| C[C@H]1C[C@@H](c2ccncc2NC(=O)c2ccc(F)c(-c3c(F)cc(CCO)cc3F)n2)C[C@@H](N)[C@]1(C)O | 7.70 |

The measured pEC50 associated with C[C@H]1C[C@@H](c2ccncc2NC(=O)c2ccc(F)c(-c3c(F)cc(C4CCS(=O)(=O)CC4)cc3F)n2)C[C@@H](N)[C@]1(C)O reads 6.24

Please fill in: pEC50 reported for C[C@H]1C[C@@H](c2ccncc2NC(=O)c2ccc(F)c(-c3c(F)cc(C(C)(C)C#N)cc3F)n2)C[C@@H](N)[C@]1(C)O = 7.18

Note to self: pEC50 recorded for COCc1cc(F)c(-c2nc(C(=O)Nc3cnccc3[C@H]3C[C@@H](N)[C@](C)(O)[C@@H](C)C3)ccc2F)c(F)c1 was 7.47
